- Tested on: SF-295 CNS
- protocol.details: NCI tumour cell line growth inhibition, 48 h
Measured TGI, listed per entry for reference.
quantity: TGI

- O=C1c2ccc3ccccc3c2CCC1N1CCCCC1 (stereo not given): 37.9 µM
- N=C(N)c1ccc(-c2ccc(-c3ccco3)o2)cc1F: 3.81 µM
- O=c1[nH][nH]c(=S)c(=O)[nH]1: > 100 µM
- O=C1CCC2(c3ccc(F)cc3)Nc3ncncc3N12 (stereo not given): > 10 µM
- COC(=O)[C@]1(C)CCC[C@]2(C)C3CC4OOC3(C=C4C(C)C)CCC21 (stereo not given in full): 31.3 µM
- Cn1c(C2CC(C)(C)c3c2c2ccccc2n3C)cc2ccccc21 (stereo not given): > 304 µM
- CCN(CC)CCCC(C)Nc1ccnc2cc(Cl)c(SCc3ccccc3)cc12 (stereo not given): 3.02 µM
- Clc1ccc(CSCc2ccc(Cl)cc2Cl)c(Cl)c1: > 100 µM
- NC(CCCNCc1ccccc1O)C(=O)O (stereo not given): > 100 µM
- O=C1CSc2ccncc2N1: > 100 µM
- O=C1C(c2c(O)[nH]c3ccc(S(=O)(=O)N(CCO)CCO)cc23)=Nc2ccccc21: > 100 µM
- O=C1C=Cc2c(I)sc(I)c21: > 100 µM
- COC1=CC(=O)C2[C@H]3Cc4ccccc4[C@H]3C2(C)C1=O (stereo not given in full): > 100 µM
- O=C1[C@H](c2ccccc2)C2c3ccccc3CCN12 (stereo not given in full): > 100 µM
- Cc1ccc(C2CC(c3cccc(Nc4ccncc4)c3)=NN2c2ccc(Cl)cc2)cc1 (stereo not given): 3.19 µM
- Cc1cc2nc3c(C#N)c(-c4ccccc4)cc(Nc4cccc(C(F)(F)F)c4)n3c2cc1C: 44.6 µM
- N=C1N=Nc2nc(C3(c4nc5n(c4O)C(=N)N=N5)Cc4ccccc4C3=O)c(O)n21 (stereo not given): > 100 µM
- O=C1C=CC(=O)N1CCCCCCCCCCN1C(=O)C=CC1=O: 74.4 µM
- N#Cc1ccccc1/C=N/O: > 100 µM
- O=C1/C(=C/c2ccc(O)cc2)CCc2ccccc21: > 63.7 µM
- Cc1c(C)c2ccc(O)cc2[nH]c1=O: > 100 µM
- N#C/C(N)=C(\C#N)N=CNc1ccccc1N: > 100 µM
- CCC(C)(C)c1ccc(Oc2cccc(C(=O)O)c2)cc1: > 100 µM
- O=C(CN/C=C\C(=O)c1cc(Cl)ccc1Cl)c1ccccc1: 50.7 µM
- COc1ccc(/C=C2\CCCC3=C2N=C2SC=NN2C3c2ccc(OC)c(OC)c2)cc1OC (stereo not given): > 100 µM

* * *

Entries and their TGI
- System: NCI-H226 lung
- protocol.details: NCI tumour cell line growth inhibition, 48 h
quantity: TGI (µM)

* O=C1/C(=C/c2cccc3ccccc23)Cc2ccccc21 | 49.6
* C(#Cc1ccccc1C#Cc1ccccn1)c1ccc(OCCCCCCOc2ccc(C#Cc3ccccc3C#Cc3ccccn3)cc2)cc1 | 13.3
* CCN(CC)CCCC(C)Nc1ccnc2cc(Cl)c(SCc3ccccc3)cc12 (stereo not given) | 8.48
* O=C1c2cccnc2-c2nccc3ccnc1c23 | 2.98

* * *

- System: OVCAR-5 ovarian
- protocol.details: NCI tumour cell line growth inhibition, 48 h
quantity: TGI

• O=C(Nc1ccc(F)cc1)c1cc2ccc(O)cc2oc1=Nc1cccc(F)c1 = > 100 µM
• O=C(CN/C=C\C(=O)c1cc(Cl)ccc1Cl)c1ccccc1 = > 100 µM
• FC(F)(F)c1ccccc1C=NC12CC3CC(CC(C3)C1)C2 = > 100 µM
• CCCC[Si](CCCC)(CCCC)O[C@@H](/C=C/C(=O)OCC)[C@H](Cc1ccccc1)O[Si](CCCC)(CCCC)CCCC = > 100 µM
• N=C(N)c1ccc(-c2ccc(-c3ccc(C(=N)N)cc3)o2)cc1 = 99.2 µM

* * *

- System: MCF7 breast
- protocol.details: NCI tumour cell line growth inhibition, 48 h
quantity: TGI (µM)

* O=C(Nc1cccc2ccccc12)c1cc2ccccc2cc1O | 7.71
* CCN1CCN(Cc2ccc3cc(C(=O)Nc4cc(NC(=O)c5ccc6c(c5)OCCO6)ccc4F)ccc3n2)CC1 | 6.75
* O=C(CN/C=C\C(=O)c1cc(Cl)ccc1Cl)c1ccccc1 | 51.9
* Cc1cccc2c(=O)c3c(sc12)c(NCCN)nc1ccccc13 | 1.42
* Cc1cc2nc3c(C#N)c(-c4ccccc4)cc(Nc4cccc(C(F)(F)F)c4)n3c2cc1C | 22.5
* COC(=O)C12OCC34C(CC5C(C)=CC(=O)C(O)C5(C)C3C(O)C1O)OC(=O)C(OC(=O)CC(C)C)C24 (stereo unspecified) | 0.00221
* CC1=C/C(=C(/c2ccc(O)c(C)c2)c2ccccc2C(=O)O)C=CC1=O | 34.5
* C(#Cc1ccccc1C#Cc1ccccn1)c1ccc(OCCCCCCOc2ccc(C#Cc3ccccc3C#Cc3ccccn3)cc2)cc1 | 8.29
* CCOC(=O)c1c2c(n3cccc(F)c13)C(=O)c1ncccc1C2=O | 1.27
* Cc1cc(Cl)ccc1Nc1nc(C(F)(F)F)ccc1C(=O)N/N=C/c1ccc(F)cc1 | 10.5

* * *

- System: TK-10 renal
- protocol.details: NCI tumour cell line growth inhibition, 48 h; in the data active means GI50 below about 0.43 µM; inactive means the rest
Possible outcomes: yes (1) (active), no (0) (inactive)

- Cc1cc(Cl)ccc1Nc1nc(C(F)(F)F)ccc1C(=O)N/N=C/c1ccc(F)cc1: no (0)
- CN(C)CCOc1cccc(NC2=C(Cl)C(=O)C(Nc3cccc(OCCN(C)C)c3)=C(Cl)C2=O)c1: yes (1)
- CCNCCNc1cc(C2CCCC2)c(C#N)c2nc3ccccc3n12: no (0)
- CCOC(=O)c1c2c(n3cccc(F)c13)C(=O)c1ncccc1C2=O: yes (1)
- O=C1C=CC(=O)N1CCCCCCCCCCN1C(=O)C=CC1=O: no (0)

* * *

- Tested on: SNB-19 CNS
- protocol.details: NCI tumour cell line growth inhibition, 48 h
Below, each entry is listed alongside its reported TGI.
quantity: TGI

- C[C@H]1[C@H](C)CC[C@]2(C(=O)O)CC[C@]3(C)C(=CC[C@@H]4[C@@]5(C)CC[C@H](OC(=O)/C=C\c6ccc(O)cc6)C(C)(C)[C@@H]5CC[C@]43C)[C@H]12: 31.1 µM
- O=C(CCc1cc(-c2ccco2)n(-c2ccc([N+](=O)[O-])cc2[N+](=O)[O-])n1)Nc1ccccc1: > 100 µM
- COc1cc(C2SC(N)=Nc3c2c(C)nn3C(=O)Cc2ccccc2)ccc1O (centres undefined): > 100 µM
- CC1=C/C(=C(/c2ccc(O)c(C)c2)c2ccccc2C(=O)O)C=CC1=O: 32.2 µM
- Oc1ccc2c3c1OC1c4[nH]c5c(c4CC4(O)C(C2)N(CC2CC2)CC[C@]314)CC1(O)C2Cc3ccc(O)c4c3[C@@]1(CCN2CC1CC1)C5O4 (some centres undefined): 64 µM
- COc1cc(CNC(=O)CCCCCCCCCCSSCCCCCCCCCCC(=O)NCc2ccc(O)c(OC)c2)ccc1O: > 10 µM
- N.N.N.N.O=S(=O)([O-])[O-].[Co+3].[OH3+].[OH3+]: > 100 µM
- COc1ccc2c(c1)CC[C@@H]1[C@@H]2CC[C@]2(C)c3c(cc(C(=O)c4ccccc4)c4sccc34)C[C@@H]12: > 100 µM
- O=C(Nc1cc(Cl)cc(Cl)c1)c1ccc(NC2=C(Cl)C(=O)N(Cc3ccccc3)C2=O)cc1: > 100 µM
- Cc1nn(C(=O)c2ccncc2)c2c1C(c1ccccc1O)SC(N)=N2 (centres undefined): > 10 µM
- O=c1[nH][nH]c(=S)c(=O)[nH]1: > 100 µM
- CCCN1CN(C(C(=O)N[C@@H]2C(=O)N3C(C(=O)O)=C(C)CSC23)c2ccccc2)CSC1=S (some centres undefined): > 100 µM
- C(=N/Nc1ccccn1)/c1cccnc1: > 100 µM
- CCN(CC)CCCC(C)Nc1ccnc2cc(Cl)c(SCc3ccccc3)cc12 (centres undefined): 4.41 µM
- Cn1cc(-c2nc(-c3cn(C)c4ncccc34)cs2)c2cc(F)ccc21: > 100 µM
- CN(C)CC1CN(C(=O)Nc2ccccc2)C(=N)O1 (centres undefined): > 100 µM
- CN(C)C(=S)SCc1ccccc1: > 100 µM
- Cc1cc(-c2ccc(Cl)cc2)c(C#N)c(=S)n1C1OC(CO)C(O)C(O)C1O (centres undefined): > 100 µM
- COc1ccc(-n2nnnc2C2(Nc3ccccc3)CCN(Cc3ccccc3)CC2)cc1: 68.5 µM

* * *

Quick reference: TGI of the listed items.
- Test system: UO-31 renal
- protocol.details: NCI tumour cell line growth inhibition, 48 h
quantity: TGI

* COc1ccc(-n2nnnc2C2(Nc3ccccc3)CCN(Cc3ccccc3)CC2)cc1 | 38.9 µM
* C[C@]12CCC(=O)C=C1CC[C@@H]1[C@@H]2CC[C@]2(C)C(=O)/C(=C\c3ccccc3)C[C@@H]12 | > 70.6 µM
* O=CNc1ccc2c(c1)Cc1cc([N+](=O)[O-])ccc1-2 | > 100 µM
* COC(=O)c1cc(O)ccc1NC(=O)c1ccc(O)cc1 | > 100 µM
* COc1ccc(C2Oc3c(cccc3OC)C=C2[N+](=O)[O-])cc1 (stereo unspecified) | 3.14 µM
* COc1cc(C2c3cc4c(cc3OC(O)C2C)OCO4)cc(OC)c1O (stereo unspecified) | > 96.5 µM
* CC(C)C(/C=C/c1ccc(Cl)cc1)=N\NC(=S)NN | > 100 µM
* COC(=O)[C@]1(C)CCC[C@]2(C)C3CC4OOC3(C=C4C(C)C)CCC21 (stereo partly specified) | 30.3 µM
* C=CCn1c(=S)sc2c(=O)[nH]cnc21 | > 100 µM
* COC(=O)C1CCc2nnc(-c3cccnc3)n21 (stereo unspecified) | > 100 µM
* N.N.N.N.O=S(=O)([O-])[O-].[Co+3].[OH3+].[OH3+] | > 100 µM
